Would you kindly list SPOT peptide array binding signal intensity for each of these binders?
# Tested Target: AgSho1
# Assay Details: SPOT peptide array binding signal intensity (averaged, normalized) (arbitrary units (background-subtracted, floor 0; scale differs between SH3 domains)); higher = stronger binding of the SH3 domain to the peptide
Numbers only.

Check out these entries, answers already filled in.
NMLKKKPLKKPLKRF    363
VRVKKRPLIRPLNSS    53
FLIKFTPKFPQSIDH    814

Sample `QLMKNLPKIPLLNDI` — what was its SPOT peptide array binding signal intensity? 3070
